system: normal primary NK cells, pool 3 (3 donors) (IL-2 2.5 ng/mL); experiment: percent inhibition of viability; higher = more inhibition; details: 72 h; 1 nM;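 note: normalised to DMSO-only wells as negative and benzethonium chloride as positive control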
The entries below are paired with their reported percent inhibition of viability.

[
  {
    "compound": "CO[C@H](C(=O)[C@@H](O)[C@@H](C)O)[C@@H]1Cc2cc3cc(O[C@H]4C[C@@H](O[C@@H]5C[C@@H](O)[C@H](O)[C@@H](C)O5)[C@H](O)[C@@H](C)O4)c(C)c(O)c3c(O)c2C(=O)[C@H]1O[C@H]1C[C@@H](O[C@@H]2C[C@@H](O)[C@@H](O[C@@H]3C[C@](C)(O)[C@H](O)[C@@H](C)O3)[C@@H](C)O2)[C@H](O)[C@@H](C)O1 [Plicamycin] (max concentration tested 10000 nM)",
    "percent inhibition of viability / %": -7.87
  },
  {
    "compound": "CC(C)(C)NC(=O)[C@H]1CC[C@H]2[C@@H]3CC[C@H]4NC(=O)C=C[C@]4(C)[C@H]3CC[C@]12C [Finasteride] (max concentration tested 10000 nM)",
    "percent inhibition of viability / %": 1.72
  },
  {
    "compound": "CC(C)N(C[C@H]1O[C@@H](n2cnc3c(N)ncnc32)[C@H](O)[C@@H]1O)[C@H]1C[C@@H](CCc2nc3cc(C(C)(C)C)ccc3[nH]2)C1 [Pinometostat] (max concentration tested 1000 nM)",
    "percent inhibition of viability / %": 13
  },
  {
    "compound": "CC/C(=C(\\c1ccc(O)cc1)c1ccc(OCCN(C)C)cc1)c1ccccc1 [4-hydroxytamoxifen] (max concentration tested 10000 nM)",
    "percent inhibition of viability / %": -0.81
  }
]

All values here come from the supplement of paper PMC5908809.
